# System: Escherichia coli
# assay-protocol: Antimicrobial activity against Escherichia coli ATCC 25922
# Format: functional
result-type: MIC (µg/mL)
Answers are plain numbers, in µg/mL.

Quick check: MIC of O=C1c2c(Cl)cccc2NC2(C(=O)Nc3ccccc32)N1Nc1ccccc1 (centres undefined) ?
32

Next:
Looking for the measured MIC of O=C1c2ccccc2NC2(C(=O)Nc3ccc([N+](=O)[O-])cc32)N1Nc1ccccc1 (centres undefined) , can you help?
4

----------
# Test system: Aspergillus fumigatus
# assay-protocol: Antifungal activity against Aspergillus fumigatus RCMB 02568
# Format: functional
result-type: MIC (µg/mL)
Give bare numbers, in µg/mL.

Here's what some known entries look like.
Suppose we examine the compound CCOC(=O)N1C/C(=C\c2ccc(Cl)cc2)C(=O)[C@@]2(C1)[C@H](c1ccc(Cl)cc1)CN(C)[C@]21C(=O)Nc2ccccc21 ; what MIC value has been reported?
0.015

CCOC(=O)N1C/C(=C\c2ccc(OC)cc2)C(=O)[C@@]2(C1)[C@H](c1ccc(OC)cc1)[C@H]1CCCN1[C@]21C(=O)Nc2ccccc21 , same question.
1.95

What would you report for CCOC(=O)N1C/C(=C\c2ccc(F)cc2F)C(=O)[C@@]2(C1)[C@H](c1ccc(F)cc1F)[C@H]1CCCN1[C@]21C(=O)Nc2ccccc21 ?
7.81

Parameter requested: MIC. Apply to each item below.
1. C[C@@H]1[C@H](O)[C@@H](C)/C=C/C=C/C=C/C=C/C=C/C=C/C=C/[C@H](O[C@@H]2O[C@H](C)[C@@H](O)[C@H](N)[C@@H]2O)C[C@@H]2O[C@](O)(C[C@@H](O)C[C@@H](O)[C@H](O)CC[C@@H](O)C[C@@H](O)CC(=O)O[C@H]1C)C[C@H](O)[C@H]2C(=O)O [AMPHOTERICIN B]
2. CCOC(=O)N1C/C(=C\c2ccc([N+](=O)[O-])cc2)C(=O)[C@@]2(C1)[C@H](c1ccc([N+](=O)[O-])cc1)[C@H]1CCCN1[C@]21C(=O)Nc2ccccc21

1. 0.015
2. 1.95

----------
# System: Candida albicans
# assay-protocol: Antifungal activity against Candida albicans RCMB 05036
# Type: functional
Active and inactive are the calls of the source. The calls are words filed in the database; no cut-off is given here.
result-type: MIC

# lookup: MIC of CCOC(=O)N1C/C(=C\c2ccc(F)cc2F)C(=O)[C@@]2(C1)[C@H](c1ccc(F)cc1F)[C@H]1CCCN1[C@]21C(=O)Nc2ccccc21
inactive

Check C[C@@H]1[C@H](O)[C@@H](C)/C=C/C=C/C=C/C=C/C=C/C=C/C=C/[C@H](O[C@@H]2O[C@H](C)[C@@H](O)[C@H](N)[C@@H]2O)C[C@@H]2O[C@](O)(C[C@@H](O)C[C@@H](O)[C@H](O)CC[C@@H](O)C[C@@H](O)CC(=O)O[C@H]1C)C[C@H](O)[C@H]2C(=O)O [AMPHOTERICIN B] too.
0.06 µg/mL

Check CCOC(=O)N1C/C(=C\c2ccc(Cl)cc2)C(=O)[C@@]2(C1)[C@H](c1ccc(Cl)cc1)CN(C)[C@]21C(=O)Nc2ccccc21 too.
0.06 µg/mL

Lookup CCOC(=O)N1C/C(=C\c2ccc([N+](=O)[O-])cc2)C(=O)[C@@]2(C1)[C@H](c1ccc([N+](=O)[O-])cc1)[C@H]1CCCN1[C@]21C(=O)Nc2ccccc21
inactive

Please find the next compound below.
Item under review: CCOC(=O)N1C/C(=C\c2ccc(OC)cc2)C(=O)[C@@]2(C1)[C@H](c1ccc(OC)cc1)[C@H]1CCCN1[C@]21C(=O)Nc2ccccc21 . Reported MIC?
inactive

----------
Reported values: IC50 for Acetylcholinesterase (Homo sapiens, UniProt P22303), one per item.
Numbers only, in nM.

Need IC50 of COc1cc2c(cc1OC)C(=O)[C@]1(C2)[C@H](c2cccc([N+](=O)[O-])c2)[C@H](Cc2c[nH]c3ccccc23)NC12C(=O)Nc1ccccc12 (some centres undefined) , thanks.
1890

Hi, could you look up IC50 for each item in my list?
1. COc1cccc([C@@H]2[C@H](Cc3c[nH]c4ccccc34)NC3(C(=O)Nc4ccccc43)[C@@]23Cc2cc(OC)c(OC)cc2C3=O)c1 (some centres undefined)
2. COc1cc2c(cc1OC)C(=O)[C@]1(C2)[C@H](c2ccc(C)cc2)[C@H](Cc2c[nH]c3ccccc23)NC12C(=O)Nc1ccccc12 (some centres undefined)
3. COc1cc2c(cc1OC)C(=O)[C@]1(C2)[C@H](c2ccccc2OC)[C@H](Cc2c[nH]c3ccccc23)NC12C(=O)Nc1ccccc12 (some centres undefined)

1. 2310
2. 14200
3. 2760

----------
# System: Aspergillus niger
# assay-protocol: Antifungal activity against Aspergillus niger
# Assay type: functional
result-type: MIC (µg/mL)
One number for each entry, in µg/mL.

Look at this compound and give its reported MIC. O=C(c1ccc(F)cc1)C1C(c2ccc(Br)cc2)C(CO)NC12C(=O)Nc1ccccc12 (stereo unspecified)
20

Same thing, different compound: CC(C)CC1NC2(C(=O)Nc3ccccc32)C(C(=O)c2ccc(F)cc2)C1c1ccc(Cl)cc1 (stereo unspecified)
20

State recorded MIC for all listed compounds.
1. CC(C)CC1NC2(C(=O)Nc3ccccc32)C(C(=O)c2ccc(F)cc2)C1c1ccc(Br)cc1 (stereo unspecified)
2. CC(C)CC1NC2(C(=O)Nc3ccccc32)C(C(=O)c2ccc(F)cc2)C1c1ccccc1 (stereo unspecified)
3. O=C(c1ccc(F)cc1)C1C(c2ccc(Cl)cc2)C(CO)NC12C(=O)Nc1ccccc12 (stereo unspecified)
4. OC(Cn1cncn1)(Cn1cncn1)c1ccc(F)cc1F [FLUCONAZOLE]

30
20
20
20

----------
# System: Bacillus subtilis
# assay-protocol: Antibacterial activity against Bacillus subtilis NCIM 2079 measured after 12 hrs
# Assay type: functional
I'd be grateful if you could share measured MIC90 for these entries.
Give bare numbers, in µg/mL.

Example entries and their recorded answers appear below.
# get_value(readout= MIC90, system= Bacillus subtilis) for NC[C@H]1O[C@H](O[C@H]2[C@H](O)[C@@H](O[C@H]3O[C@H](CO)[C@@H](O)[C@H](N)[C@H]3O)[C@H](N)C[C@@H]2N)[C@H](O)[C@@H](O)[C@@H]1O [KANAMYCIN]
1.35

Also need Cc1ccc(Cn2cc(CN3C(=O)C4(C(C#N)=C(N)Oc5cc(C)oc(=O)c54)c4cc(Cl)ccc43)nn2)cc1 (configuration not stated) , thanks.
7.19

Same question for CC1(C)CC(=O)C2=C(C1)OC(N)=C(C#N)C21C(=O)N(Cc2cn(Cc3ccc(Cl)cc3)nn2)c2ccc(Br)cc21 (configuration not stated) please.
3.18

Then what about the compound Cc1ccc(Cn2cc(CN3C(=O)C4(C(C#N)=C(N)Oc5cc(C)oc(=O)c54)c4ccccc43)nn2)cc1 (configuration not stated) ?
2.85

Then CC1(C)S[C@@H]2[C@H](NC(=O)[C@H](N)c3ccccc3)C(=O)N2[C@H]1C(=O)O [AMPICILLIN] ?
10.3

Below are 2 compounds. Give each one its MIC90.
1. Cc1cc2c(c(=O)o1)C1(C(=O)N(Cc3cn(Cc4ccc(Cl)cc4)nn3)c3ccc(Br)cc31)C(C#N)=C(N)O2 (configuration not stated)
2. CC1(C)CC(=O)C2=C(C1)OC(N)=C(C#N)C21C(=O)N(Cc2cn(Cc3ccc(Cl)cc3)nn2)c2ccc(Cl)cc21 (configuration not stated)

1: 5.27; 2: 1.14

----------
Kindly state IC50 for each of the entries shown.
# system-tested: NAD-dependent protein deacetylase sirtuin-2 (Homo sapiens, UniProt Q8IXJ6)
# Sequence (Q8IXJ6 whole entry): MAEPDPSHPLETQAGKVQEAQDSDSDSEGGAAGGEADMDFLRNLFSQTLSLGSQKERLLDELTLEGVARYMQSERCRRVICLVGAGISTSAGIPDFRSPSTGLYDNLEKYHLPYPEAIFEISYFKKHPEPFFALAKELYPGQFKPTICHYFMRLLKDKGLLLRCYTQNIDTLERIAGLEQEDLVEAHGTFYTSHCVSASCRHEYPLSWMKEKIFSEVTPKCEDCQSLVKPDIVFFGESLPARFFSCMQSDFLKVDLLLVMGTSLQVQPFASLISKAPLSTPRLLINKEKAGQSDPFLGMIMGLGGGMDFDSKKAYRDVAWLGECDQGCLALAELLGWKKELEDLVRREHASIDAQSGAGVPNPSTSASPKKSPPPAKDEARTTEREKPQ
Could you give the number and then its unit, please?

// solved cases for IC50 follow
Param item = CCOC(=O)C1=C(N)Oc2cc(C)oc(=O)c2C12C(=O)Nc1ccc(Br)cc12 (stereo not drawn) ; retrieve measured IC50.
124 µM

Next: CCOC(=O)C1=C(N)Oc2cc(C)oc(=O)c2C12C(=O)N(Cc1ccccc1)c1ccccc12 (stereo not drawn)
126 µM

Now look at this entry.
Which IC50 is reported for this compound? CCOC(=O)C1=C(N)Oc2c(c(=O)oc3cc(Cl)ccc23)C12C(=O)Nc1ccc(C)cc12 (stereo not drawn)
118 µM

Reference source for all entries: ChEMBL document CHEMBL5226286
